inhibition by entry:
target: Pantothenate synthetase (Mycobacterium tuberculosis (strain ATCC 25618 / H37Rv))
measurement.description: Coupled enzyme confirmation of inhibitors against recombinant Mtb PanC (AID 375);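 also: 0% = full reaction with vehicle and 100% = no enzyme background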
settings: coupled enzyme assay; at 10 µM, active compounds read high
Give just the number in %; leave the unit off.

Reference set, count: 3
O=C1NC(c2cccs2)Nc2ccccc21 (stereo unspecified) :: 0
COc1ccc(-c2noc(COc3ccc(Cl)c(C)c3)n2)cc1 :: 0
CSc1ccccc1C(=O)NC1CC2CCC1C2 (stereo unspecified) :: 0

Given the entry CCOC(=O)N1CCN(C(=O)c2cn(CC)c3cc(N4CCN(C)CC4)c(F)cc3c2=O)CC1 , report its measured inhibition.
0

Given the entry O=P(O)(O)c1ccccc1OCCOCCOc1ccccc1P(=O)(O)O , report its measured inhibition.
4

Given the entry COc1ccc(C2c3c(oc4ccccc4c3=O)C(=O)N2Cc2ccncc2)cc1OC (stereo unspecified) , report its measured inhibition.
6

----------
measurement.description: H69AR cell proliferation blockers – human, duplicate replicates, primary screen (AID 580);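 also: 100% = mean luminescence of untreated wells and 0% = no signal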
settings: H69AR lung tumor cells viability, ATP luminescence, 72 h; at 10 µM; active compounds read low
Under this convention, TRUE denotes viability strictly below 90% and FALSE denotes viability at or above 90%.

COc1ccc(Cc2nccc3cc(OC)c(OC)cc23)cc1OC :: TRUE
NCC1(CC(=O)O)CCCCC1 :: FALSE
CC1=C(C(=O)OC(C)C)[C@]2(C(=O)N(CC(N)=O)c3ccccc32)C(C#N)=C(N)O1 :: FALSE
Nc1ccnn1C1CCNCC1 :: FALSE
COc1ccccc1/C=C1/C(=N/O)C2CCN1CC2 :: FALSE
CN1C(=O)C(Cc2cccc3ccccc23)C(=O)N(C)C1=O :: TRUE
C=C1CC[C@@]2(O)[C@H]3Cc4ccc(O)c5c4[C@@]2(CCN3CC2CC2)[C@H]1O5 :: FALSE

Could you now look at the following molecule, please?
Please let me know if C[N+]1(C)[C@@H]2CC(OC(=O)[C@H](CO)c3ccccc3)C[C@H]1[C@@H]1O[C@@H]12 (stereo partly specified) shows viability below 90%.
FALSE

----------
target: Pantothenate synthetase (Mycobacterium tuberculosis (strain ATCC 25618 / H37Rv)) (UniProt P9WIL5)
Sequence (P9WIL5 whole entry, looked up): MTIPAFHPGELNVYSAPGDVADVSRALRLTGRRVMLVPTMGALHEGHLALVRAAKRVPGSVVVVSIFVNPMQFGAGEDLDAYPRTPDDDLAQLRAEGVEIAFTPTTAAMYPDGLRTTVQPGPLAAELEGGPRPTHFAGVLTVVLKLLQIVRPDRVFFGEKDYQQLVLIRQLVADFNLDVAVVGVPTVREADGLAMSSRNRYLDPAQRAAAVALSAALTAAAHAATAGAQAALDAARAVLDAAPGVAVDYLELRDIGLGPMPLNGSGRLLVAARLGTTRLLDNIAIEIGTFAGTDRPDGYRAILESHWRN
measurement.description: Coupled enzyme confirmation of inhibitors against recombinant Mtb PanC (AID 375);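 also: 0% = full reaction with vehicle and 100% = no enzyme background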
settings: coupled enzyme assay; at 10 µM, active compounds read high
inhibition by entry:
Give just the number in %; leave the unit off.

Reference set, count: 4
CCN(CC)CCOC(=O)C(c1ccccc1)c1ccccc1 :: 0
CSc1nc2ccc(S(=O)(=O)N3CCOCC3)cc2s1 :: 4
O=C(O)Cn1cc2c(n1)CCCC2 :: 0
COc1ccc(CN(C(=O)c2oc3ccccc3c2C)C2CCS(=O)(=O)C2)cc1 (stereo not given) :: 0

Given the entry Cc1nc2cc(-n3ccc(=O)cc3)ccc2n1-c1ccccc1 , report its measured inhibition.
2

Given the entry Cc1cnc(C(=O)OCC(=O)Nc2ccc(Cl)cc2Cl)cn1 , report its measured inhibition.
8

Given the entry CC(=O)Nc1ccc(S(=O)(=O)n2cnc(C)c2)cc1 , report its measured inhibition.
3

----------
target: Pantothenate synthetase (Mycobacterium tuberculosis (strain ATCC 25618 / H37Rv))
measurement.description: Coupled enzyme confirmation of inhibitors against recombinant Mtb PanC (AID 375);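 also: 0% = full reaction with vehicle and 100% = no enzyme background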
settings: coupled enzyme assay; at 10 µM, active compounds read high
// N strictly below 2% in inhibition; Y otherwise

Example cases with answers are listed next.
CCOc1ccccc1OCC(=O)NCc1ccco1 :: N
CCOC(=O)c1cc2c(cn1)[nH]c1ccccc12 :: Y
COC(=O)c1ccc2c(=O)n(CC3CCCO3)c(=S)[nH]c2c1 (configuration not stated) :: N
CN(Cc1ccccc1)c1nc2c(c(=O)[nH]c(=O)n2C)n1Cc1ccccc1Cl :: Y
Cc1nc2cc(CO)ccc2n1C :: Y
COc1ccccc1NC(=O)CC(NCc1ccccc1)C(=O)O (configuration not stated) :: Y

# check: inhibition of CCOC(=O)c1c(COC(=O)c2ccco2)nc2ccccc2[n+]1[O-] is greater than or equal to 2%
N

# check: inhibition of CC(=O)N1C(=O)C2(Nc3ccccc3N2)c2ccccc21 is greater than or equal to 2%
N

# check: inhibition of COc1ccc(NC(=O)CSc2c(C)nn(-c3nnc(C)c(=O)[nH]3)c2C)cc1 is greater than or equal to 2%
N

# check: inhibition of Fc1ccccc1-c1nc(-c2ccccc2)no1 is greater than or equal to 2%
Y

# check: inhibition of CN=C1CC(C)(C)CC(=O)/C1=C(/O)CCC(=O)NC is greater than or equal to 2%
N
